Documented pEC50 across a set of compounds
target: AHR (Homo sapiens, UniProt P35869); construct: endogenous in cells; host or cells: HepG2 (human), transfected with a DRE-luciferase reporter only; assay: DRE-Luciferase Reporter Assay, HepG2 (agonist); assay type: cell-based; conditions: HepG2, Table 3; read-out: DRE-Luc HepG2 - Agonist: Average EC50
Sequence (P35869 11-848): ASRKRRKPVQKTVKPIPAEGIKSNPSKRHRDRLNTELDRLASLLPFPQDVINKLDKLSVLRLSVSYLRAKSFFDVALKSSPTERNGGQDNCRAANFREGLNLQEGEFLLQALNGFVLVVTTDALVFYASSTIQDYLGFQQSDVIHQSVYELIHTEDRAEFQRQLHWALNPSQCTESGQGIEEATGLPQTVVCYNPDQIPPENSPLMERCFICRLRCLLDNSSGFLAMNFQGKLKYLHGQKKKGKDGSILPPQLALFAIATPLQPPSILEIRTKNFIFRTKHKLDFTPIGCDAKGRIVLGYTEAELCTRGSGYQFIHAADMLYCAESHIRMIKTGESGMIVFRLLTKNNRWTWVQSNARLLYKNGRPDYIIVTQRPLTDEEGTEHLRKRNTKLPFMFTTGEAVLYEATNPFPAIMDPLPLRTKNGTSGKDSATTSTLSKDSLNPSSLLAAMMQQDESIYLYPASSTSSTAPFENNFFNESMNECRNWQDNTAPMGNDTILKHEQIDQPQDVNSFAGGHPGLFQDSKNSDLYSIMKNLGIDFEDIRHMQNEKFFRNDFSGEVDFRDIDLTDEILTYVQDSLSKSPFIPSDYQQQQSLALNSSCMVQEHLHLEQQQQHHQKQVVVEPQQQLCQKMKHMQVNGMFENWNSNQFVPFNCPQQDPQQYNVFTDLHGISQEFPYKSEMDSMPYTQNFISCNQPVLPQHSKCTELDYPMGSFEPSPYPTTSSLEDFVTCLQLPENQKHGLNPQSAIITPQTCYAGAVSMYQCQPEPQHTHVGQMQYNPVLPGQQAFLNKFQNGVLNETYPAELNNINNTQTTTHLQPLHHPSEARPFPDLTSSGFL
pEC50: −log10 of the molar value.

Give pEC50 for the following compound: `[O-][n+]1cccc(-c2nc(Nc3cccc(C(F)(F)F)c3)no2)c1`
< 6.00

Give pEC50 for the following compound: `NC(=O)c1cccc(-c2csc(Nc3cncc(C(F)(F)F)c3)n2)c1`
< 6.00

Give pEC50 for the following compound: `Nc1ccccc1-c1csc(Nc2ccccc2C(F)(F)F)n1`
7.00 to 8.00

Give pEC50 for the following compound: `O=C(O)c1cccc(/N=N/c2cc(-c3csc(Nc4cccc(C(F)(F)F)c4)n3)ccc2F)c1`
6.00 to 7.00

Give pEC50 for the following compound: `O=c1cc(-c2nsc(Nc3cccc(C(F)(F)F)c3)n2)cc[nH]1`
> 8.00

Give pEC50 for the following compound: `Fc1ccc(/N=N/c2ccc(F)c(-c3csc(Nc4cccc(C(F)(F)F)c4)n3)c2)cc1-c1csc(Nc2cccc(C(F)(F)F)c2)n1`
6.00 to 7.00

Give pEC50 for the following compound: `COc1cc(-n2cnc(Nc3cccc(C(F)(F)F)c3)n2)ccn1`
6.00 to 7.00

Give pEC50 for the following compound: `O=S(=O)(O)c1cccc(-c2csc(Nc3cccc(C(F)(F)F)c3)n2)c1`
< 6.00

Give pEC50 for the following compound: `O=C(O)c1cc(-c2csc(Nc3cccc(C(F)(F)F)c3)n2)c[n+]([O-])c1`
< 6.00
